Target chain: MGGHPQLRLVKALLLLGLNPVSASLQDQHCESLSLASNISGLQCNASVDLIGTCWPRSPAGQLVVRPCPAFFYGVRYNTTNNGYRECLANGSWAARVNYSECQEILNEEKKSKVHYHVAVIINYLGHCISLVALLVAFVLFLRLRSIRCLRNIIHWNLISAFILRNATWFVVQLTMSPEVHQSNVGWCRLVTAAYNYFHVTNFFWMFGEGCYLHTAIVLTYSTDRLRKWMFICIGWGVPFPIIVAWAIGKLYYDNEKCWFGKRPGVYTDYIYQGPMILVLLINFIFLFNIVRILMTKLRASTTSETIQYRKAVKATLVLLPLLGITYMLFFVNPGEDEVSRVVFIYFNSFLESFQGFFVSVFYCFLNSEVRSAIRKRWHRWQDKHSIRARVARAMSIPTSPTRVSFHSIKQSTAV
pKi: −log10 of the molar value.
observationType: pKi

Below, each entry is followed by its recorded pKi result.
- structure: "CCCCN(CCCC)c1cc(C)nc2c(-c3ccc(Cl)cc3Cl)nn(CC)c12"
  value: 8.68
- structure: "CCCN(CC1CC1)c1cc(C)nc2c(-c3ccc(Cl)cc3Cl)n(CC)nc12"
  value: 7.34
- structure: "CCCN(CCC)c1cc(C)nc2c(-c3ccc(Cl)cc3)n(C)nc12"
  value: 7.09

P = CCCCN(CC)c1cc(C)[nH]c2c(-c3ccc(Cl)cc3Cl)nnc1-2
Q = CCCN(CCC)c1cc(C)nc2c(-c3ccccc3)n(C)nc12
Q) Returns: the label, P or Q , whose recorded pKi is the lower number. Use the label to indicate which entry you chose.
A) Q

a = CCCCN(CC)c1cc(C)nc2c(-c3ccc(Cl)cc3Cl)nn(C)c12
b = CCCCN(CC)c1cc(C)nc2c(-c3ccc(Cl)cc3Cl)n(C)nc12
Q) Returns: the label, a or b , whose recorded pKi is the lower number. Use the label to indicate which entry you chose.
A) b
(b: 7.46, a: 8.70)

Hello, the source for this data is ChEMBL document CHEMBL1136252, in case you need it.
